B1: glmS ribozyme (parent)
chain: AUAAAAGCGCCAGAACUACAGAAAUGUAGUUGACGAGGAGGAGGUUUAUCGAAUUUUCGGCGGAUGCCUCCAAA

- Variants of: B1
- Method Notes: self-cleavage kobs at 40 uM GlcN6P; higher = faster cleavage; RNA array
- Details: with glucosamine-6-phosphate
This sample holds only a part of the variants without activity.

[
  {
    "Mutant Id": "U45G U69A",
    "self-cleavage kobs at 40 uM GlcN6P": "0.000333 s⁻¹"
  },
  {
    "Mutant Id": "A53U C61U",
    "self-cleavage kobs at 40 uM GlcN6P": "< 1e-05 s⁻¹"
  },
  {
    "Mutant Id": "G13U A52G",
    "self-cleavage kobs at 40 uM GlcN6P": "< 1e-05 s⁻¹"
  },
  {
    "Mutant Id": "A12G C16A U30G A36G",
    "self-cleavage kobs at 40 uM GlcN6P": "< 1e-05 s⁻¹"
  },
  {
    "Mutant Id": "G38A C50U A53G G62U",
    "self-cleavage kobs at 40 uM GlcN6P": "< 1e-05 s⁻¹"
  },
  {
    "Mutant Id": "C16U C71A",
    "self-cleavage kobs at 40 uM GlcN6P": "0.000186 s⁻¹"
  },
  {
    "Mutant Id": "G40A C61A",
    "self-cleavage kobs at 40 uM GlcN6P": "< 1e-05 s⁻¹"
  },
  {
    "Mutant Id": "U31A U47G",
    "self-cleavage kobs at 40 uM GlcN6P": "7.57e-05 s⁻¹"
  },
  {
    "Mutant Id": "A6C G7U",
    "self-cleavage kobs at 40 uM GlcN6P": "< 1e-05 s⁻¹"
  },
  {
    "Mutant Id": "G7A A12G U47A",
    "self-cleavage kobs at 40 uM GlcN6P": "< 1e-05 s⁻¹"
  },
  {
    "Mutant Id": "C10U A64G C68A",
    "self-cleavage kobs at 40 uM GlcN6P": "< 1e-05 s⁻¹"
  },
  {
    "Mutant Id": "A14G A15U G37A",
    "self-cleavage kobs at 40 uM GlcN6P": "4.55e-05 s⁻¹"
  },
  {
    "Mutant Id": "A12G C16G A53U C71A",
    "self-cleavage kobs at 40 uM GlcN6P": "< 1e-05 s⁻¹"
  },
  {
    "Mutant Id": "A6U G35U A39G C71A",
    "self-cleavage kobs at 40 uM GlcN6P": "< 1e-05 s⁻¹"
  },
  {
    "Mutant Id": "A14G A53U U55G",
    "self-cleavage kobs at 40 uM GlcN6P": "0.000607 s⁻¹"
  },
  {
    "Mutant Id": "G66U C67A",
    "self-cleavage kobs at 40 uM GlcN6P": "5.28e-05 s⁻¹"
  },
  {
    "Mutant Id": "G7A G38C",
    "self-cleavage kobs at 40 uM GlcN6P": "< 1e-05 s⁻¹"
  },
  {
    "Mutant Id": "U45G C61G",
    "self-cleavage kobs at 40 uM GlcN6P": "< 1e-05 s⁻¹"
  },
  {
    "Mutant Id": "G9A U45C",
    "self-cleavage kobs at 40 uM GlcN6P": "< 1e-05 s⁻¹"
  }
]
